Assay: qHTS for Inhibitors of human tyrosyl-DNA phosphodiesterase 1 (TDP1): qHTS in cells in presence of CPT; also: nearly all actives have a fitted effect of over 55% in size; also: potency is read from the fitted curve at half-maximal effect
Conditions: chicken DT40 Tdp1-/-;hTDP1 cells + 20 nM CPT, ATP luminescence, 48 h; series mostly up to 46.2 µM
Screen size: about 420,000 compounds; about 50,000 (12%) were called active. Another 26% or so got no clear call; they are omitted. Only a selection was taken, and actives are over-represented in it overall.
propertyMeasured: Potency

Example cases with answers are listed next.
CCNc1ncc2nc(CCc3ccccc3)c(=O)n(-c3ccc(OC)cc3)c2n1	inactive
CC(Oc1ccc(F)cc1)C(=O)N1CCN(c2ncccn2)CC1 (stereo unspecified)	inactive
Cc1cc(O)c(C2(O)C(=O)Nc3ccccc32)cc1C (stereo unspecified)	inactive
CC(C)(C)OC(=O)N1CCC(C(=O)NNC(=O)c2ccc(Cl)cc2Cl)CC1	inactive
COc1ccc(C2OCC3(CO2)SC(=O)NC3=O)cc1OC (stereo unspecified)	inactive
CCOC(=O)N1CCC(NC(=O)c2cnn(-c3cccc(C)c3)c2C2CCN(C(=O)OC(C)(C)C)CC2)CC1	23.1 µM (active)
O=C(COc1ccc([N+](=O)[O-])cc1)Nc1ccc(N2CCCC2)cc1	inactive
O=C(CN1CCN(CC(=O)Nc2ccc3c(c2)OCO3)CC1)Nc1ccc(F)cc1	inactive

Kindly indicate its recorded Potency. Item: CN(CC(=O)Nc1ccccc1F)CC(=O)Nc1ccccc1Br
inactive

Kindly indicate its recorded Potency. Item: O=C(CSc1nnc(-c2ccccn2)n1-c1ccccc1)Nc1ccc2c(c1)OCO2
inactive

---

Assay: qHTS for Inhibitors of human tyrosyl-DNA phosphodiesterase 1 (TDP1): qHTS in cells in presence of CPT; also: nearly all actives have a fitted effect of over 55% in size
Conditions: chicken DT40 Tdp1-/-;hTDP1 cells + 20 nM CPT, ATP luminescence, 48 h; series mostly up to 46.2 µM
Procedure: Human tyrosyl-DNA phosphodiesterase 1 (TDP1) is a novel repair gene, and we propose to use it as a new target for anticancer drug development. […] For the primary screen, Tdp1-/-;hTDP1 cells will be exposed to small molecules in the presence or absence of CPT, and their growth kinetics will be evaluated after 48 hours by measuring ATP activity. […] The hit compounds will then be evaluated in the presence or absence of CPT using Tdp1-/- cells. […]
The campaign covered roughly 420,000 compounds. About 50,000 (12%) were called active. Not shown: some 26% with an inconclusive outcome. Calls come from the whole dose curve; as a rule, active = well fitted inhibition curve with a large enough effect; inconclusive = small, poorly fitted or top-dose-only effect; inactive = flat fitted curve, though single readings scatter. For the sample, actives were picked, then their nearest neighbours and some compounds at random.
Returns: one label drawn from active, inactive

O=C(O)c1ccccc1-c1cccc2nncn12	inactive

Can you look up the reported call for COc1cccc(CNC(=O)C2CC(=O)N(C3CCCCCCC3)C2)c1 (configuration not stated) for me?
inactive

Can you look up the reported call for O=c1ccn([C@@H]2O[C@H](CNS(=O)(=O)c3cc4ccccc4s3)[C@@H](O)[C@H]2O)c(=O)[nH]1 for me?
inactive

Can you look up the reported call for COc1ccc(C2C(C(C)=O)=C(O)C(=O)N2Cc2cccnc2)cc1 (configuration not stated) for me?
inactive

Can you look up the reported call for Cc1cc(C)cc(Oc2nc3c(C)cccn3c(=O)c2/C=C(\C#N)C(=O)NC2CCS(=O)(=O)C2)c1 (configuration not stated) for me?
active

Can you look up the reported call for Cc1ccc(C(=O)N/C(=C\c2ccco2)C(=O)NC2CCS(=O)(=O)C2)cc1 (configuration not stated) for me?
inactive

Can you look up the reported call for O=S(=O)(NC1CCCCC1N1CCC(O)CC1)c1ccc(Cl)cc1 (configuration not stated) for me?
inactive

Can you look up the reported call for COc1cccc(CNC(=O)CCC(=O)N2CC3CCCN3c3ccccc32)c1 (configuration not stated) for me?
active

Can you look up the reported call for Oc1ccc(-c2cccc(-c3ccc(O)cc3)c2)cc1 for me?
inactive

Can you look up the reported call for CCNC(=O)Cn1nc(C)n2c(cc3c(OC)cccc32)c1=O for me?
inactive

Can you look up the reported call for COc1cc(OC)c(C(=O)N2CCCC2)cc1OC for me?
inactive

Can you look up the reported call for O=C(NNC(=O)C1CCC1)c1ccccc1 for me?
inactive

Can you look up the reported call for CCn1ccnc1CN(C)Cc1nc(-c2ccc3c(c2)OCO3)no1 for me?
inactive
